Molecular target: T1, mFc tagged human LAG3 ECD recombinant protein (human, UniProt P18627 23-450)
T1 construct: extracellular domain; purchased from Biointron; not shown: mouse IgG Fc (mFc) tag
T1 sequence (looked up): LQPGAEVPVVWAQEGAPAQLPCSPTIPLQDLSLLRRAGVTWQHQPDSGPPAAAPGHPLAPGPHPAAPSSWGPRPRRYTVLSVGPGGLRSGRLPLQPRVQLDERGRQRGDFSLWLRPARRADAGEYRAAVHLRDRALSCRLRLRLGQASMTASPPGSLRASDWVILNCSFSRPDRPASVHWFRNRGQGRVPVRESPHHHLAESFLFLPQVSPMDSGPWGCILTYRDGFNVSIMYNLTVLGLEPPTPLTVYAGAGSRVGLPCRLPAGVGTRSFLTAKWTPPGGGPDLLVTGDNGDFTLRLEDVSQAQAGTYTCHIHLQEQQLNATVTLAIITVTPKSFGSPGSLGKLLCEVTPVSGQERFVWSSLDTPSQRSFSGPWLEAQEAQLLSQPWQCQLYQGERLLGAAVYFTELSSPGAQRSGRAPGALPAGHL
Test: competitive FACS: mFc-LAG3 ECD binding to Raji cells (MHC II)
reportedEndpoint: pIC50
pIC50 is defined as minus the log10 of a concentration measured in mol/L.

Example binders with recorded pIC50:
binder="hu023.10 (antibody, human IgG4, V domains shown, humanized from 023c) VH: QVQLVQSGPELKKPGASVKVSCKASGYTFTESPMNWVRQAPGQGFEWMGIIYTDTGEPTYAEEFKGRFVFSLDTSVSTAYLQISSLKAEDTAVYFCVSDYGSILYWYFDVWGQGTLVTVSS VL: DIQMTQSPSSLSASVGDRVTITCKASQDVSTAVAWYQQKPGKAPKLLIYSASYRYTGVPSRFSGSGSGTDFTLTISSLQPEDFATYYCQQHYNAPPTFGQGTKLEIK" experimentalresult=8.23
binder="hu023.04 (antibody, human IgG4, V domains shown, humanized from 023c) VH: QVQLVQSGAEVKKPGASVKVSCKASGYTFTESPMNWVRQAPGQGFEWMGIIYTDTGEPTYAEEFKGRVTMTRDTSTSTVYMELSSLRSEDTAVYFCASDYGSILYWYFDVWGQGTLVTVSS VL: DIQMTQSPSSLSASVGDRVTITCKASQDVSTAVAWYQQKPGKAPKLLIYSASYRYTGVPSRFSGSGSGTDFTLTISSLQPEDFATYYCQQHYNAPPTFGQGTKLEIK" experimentalresult=8.23
binder="hu023.11 (antibody, human IgG4, V domains shown, humanized from 023c) VH: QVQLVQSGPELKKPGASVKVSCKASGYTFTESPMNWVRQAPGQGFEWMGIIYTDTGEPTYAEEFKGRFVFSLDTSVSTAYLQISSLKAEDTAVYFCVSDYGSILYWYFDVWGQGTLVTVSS VL: DIQMTQSPSSLSASVGDRVTITCKASQDVSTAVAWYQQKPGKSPKLLIYSASYRYTGVPSRFSGSGSGTDFTFTISSLQPEDFATYYCQQHYNAPPTFGQGTKLEIK" experimentalresult=8.24

Alright, here's another binder for you.
In: Any idea what its pIC50 is? The binder is hu023.07 (antibody, human IgG4, V domains shown, humanized from 023c) VH: QVQLVQSGPEVKKPGASVKVSCKASGYTFTESPMNWVRQAPGQGFEWMGIIYTDTGEPTYAEEFKGRVTMTLDTSTSTVYMELSSLRSEDTAVYFCASDYGSILYWYFDVWGQGTLVTVSS VL: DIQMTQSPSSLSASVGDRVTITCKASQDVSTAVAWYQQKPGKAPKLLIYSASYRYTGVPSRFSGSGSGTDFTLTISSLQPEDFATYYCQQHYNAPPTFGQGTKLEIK
Out: 8.26

Hey, just so you know, these numbers are from patent US20250313625A1.
